test system: UO-31; experiment: NCI tumour cell line growth inhibition, 48 h
The source made the active and inactive calls. Cut-off read from the data, not from the text of the source: active = GI50 up to about 1.1 µM and inactive = higher.
Hi there, use one of these labels in your reply, thanks! TRUE = active, FALSE = inactive

In: Each compound tested received a call. Report the one for "CC(=O)NC1=C(NC(C)(C)C)C(=O)c2ccccc2C1=O" .
Out: FALSE

In: Same lookup for C=C1C(OC(C)=O)CC(OC(C)=O)C2(C)C(OC(C)=O)C(OC(C)=O)C3=C(C)C(OC(=O)/C=C/c4ccccc4)CC(C(OC(C)=O)C12)C3(C)C (configuration not stated) , please.
Out: FALSE

In: Further, for "O=C(Cn1c(=O)oc2ccc(C(=O)c3ccccc3Cl)cc21)c1ccc([N+](=O)[O-])cc1" ?
Out: FALSE

In: Quick one: "CC1(C)OC(=O)C(c2ccsc2)C(=O)O1"
Out: FALSE

---

Each entry below carries its recorded GI50.
tested on: CAKI-1; assay: NCI tumour cell line growth inhibition, 48 h
Active and inactive are the calls of the source. No stated cut-off is given here; in the data, active = GI50 up to about 1.1 µM and inactive = higher. Square brackets hold non-standard residues; d marks the D form. Peptide text beside a SMILES is read from it.

Here are 3 compounds together with their reported answers.
• CN(C)/C=N\c1c(Br)cc(Br)c2nonc12 = > 100 µM (inactive)
• N=C(N)NCCC[C@H]1NC(=O)[C@@H](CCC(=O)O)NC(=O)[C@@H](CC(=O)O)NC(=O)[C@@H](CCC(=O)O)NC(=O)[C@H](Cc2c[nH]c3ccccc23)NC1=O (cyclo(W[dE][dD][dE][dR])) = > 7.5 µM (inactive)
• CCOC(=O)C1(Cc2ccc(C)cc2)Cc2ccc(C)cc2C1=O (centres undefined) = 19.5 µM (inactive)

In the following, a different compound is considered.
In: Consider the compound shown here: COc1ccc(C2C(C(=O)O)=C(CO)Oc3cc4c(cc32)OCO4)c(OC)c1 (centres undefined) What is its recorded GI50?
Out: 88.1 µM (inactive)

---

tested on: SNB-19; test: NCI tumour cell line growth inhibition, 48 h
Counter-ions that a name gives are not always drawn. Activity calls are given as the source filed them. Rule as the data show it: active = GI50 up to about 1.1 µM and inactive = higher.
Would you mind answering with one of these outcomes? active, inactive

- NC1N=C(c2ccc(Cl)cc2)C2=C(N1)c1ccccc1CC2 (stereo not given): inactive
- O=C1CCCN1C(=O)CS(=O)(=O)c1ccccc1: inactive
- COc1ccc2nc3cc(Cl)ccc3c(SCC(=O)Nc3ccccc3-c3ccccc3NC(=O)CSc3c4ccc(Cl)cc4nc4ccc(OC)cc34)c2c1: inactive
- NCCCCN [PUTRESCINE HYDROCHLORIDE]: inactive
- O=C1c2c(ccc3c2CCC3)CC12Cc1cc3c(cc1C2)CCC3: inactive
- C=CCN1C(=O)/C(=C/c2ccc(C)cc2)N=C1SC/C=C/C: inactive

In: Would you mind telling me which call this test gave "CSc1[nH]nc(N)c1C(=O)Nc1ccccc1" ?
Out: inactive

In: Another: "N/C(=N\N=C\c1cc2ccccc2s1)c1cnccn1"
Out: inactive

In: Quick one: "CC(=O)/N=C1/N(/C=C2\C(=O)Oc3ccccc3C2=O)C(=O)/C(=C/c2ccccc2Cl)N1C"
Out: inactive

In: Do the same for "Cc1cc(N(CCC#N)CCC#N)ccc1/C(Sc1ccccc1)=C(\NC(=O)/C=C/c1ccccc1)C(=O)Sc1ccccc1" please
Out: inactive

---

test system: HOP-92; test: NCI tumour cell line growth inhibition, 48 h
Activity calls are given as the source filed them. Cut-off read from the data, not from the text of the source: active = GI50 up to about 1.1 µM and inactive = higher.
Outcome field: choose from y (active), n (inactive)

Below are worked cases with known answers.
* CC1(C)N=c2c(ncn2Cc2ccccc2)=C(C(N)=O)N1 | n
* C1=Cc2cccc3occ(c23)C=C1 | n
* O=C1CCCN1C(=O)CS(=O)(=O)c1ccccc1 | n
* Cc1cc2nc3c(=O)[nH]c(=O)nc-3n(CC(O)C(O)C(O)CO)c2cc1N (stereo not drawn) | n
* COc1ccc(CCCNC(=O)Cc2ccccc2CO)cc1OC | n
* O=C(Nc1ccc(C(F)(F)F)cc1[N+](=O)[O-])C(=O)Nn1c(S)nc2ccccc2c1=O | n
* CCCC(=O)OC1=C(c2ccccc2)Sc2ccccc2-n2cccc21 | n
* COc1ccc(-c2c3ccccc3c(-c3ccc(OC)cc3)c3ccccc23)cc1 | n

In: I would be grateful if you could indicate the recorded call for "O=C1c2c(ccc3c2CCC3)CC12Cc1cc3c(cc1C2)CCC3" .
Out: n

In: Same lookup for "COc1ccc2nc3cc(Cl)ccc3c(SCC(=O)Nc3ccccc3-c3ccccc3NC(=O)CSc3c4ccc(Cl)cc4nc4ccc(OC)cc34)c2c1" , please.
Out: n

In: Then what about the compound "O=C(/C=C/NC(=O)OCc1ccccc1)OCc1ccccc1" ?
Out: n

In: Another compound: "Cc1nc2c(o1)C(=O)c1ccccc1/C2=N\c1ccccc1"
Out: n

In: Moving on to the next compound: COc1cc(OC)c([C@@H]2OC(=O)C3C2C(=O)O[C@H]3c2cc(OC)c(OC)cc2OC)cc1OC (stereo partly drawn)
Out: n

In: Next entry: "C/C=N\N1C(=O)c2ccccc2C1=O"
Out: n

---

system: EKVX; assay: NCI tumour cell line growth inhibition, 48 h
Calls of active or inactive are those of the source. Rule as the data show it: active = GI50 up to about 1.1 µM and inactive = higher.
Recorded GI50, one value per entry.

Known results for compounds:
* COc1cc2cc(C(=O)N3CC(CCl)c4c3cc(NC(=O)OCc3ccc([N+](=O)[O-])cc3)c3ccccc43)[nH]c2c(OC)c1OC (centres undefined) | 43 µM (inactive)
* COc1cc(OC)nc(-n2c(N)c(C#N)c3ccc([N+](=O)[O-])cc3c2=O)n1 | > 100 µM (inactive)

In: // GI50 lookup, key: "COc1ccc2nc3cc(Cl)ccc3c(SCC(=O)Nc3ccccc3-c3ccccc3NC(=O)CSc3c4ccc(Cl)cc4nc4ccc(OC)cc34)c2c1"
Out: > 100 µM (inactive)

In: Could you do the same for "CCCC(=O)Oc1cc(OC(=O)CCC)c2c(C)cc(=O)oc2c1" , please?
Out: > 100 µM (inactive)

In: Now give it for "Nc1n[n+](-c2ccccc2)no1" too.
Out: > 100 µM (inactive)

In: Again, but for Cc1c(N)nc(C(CC(N)=O)NCC(N)C(N)=O)nc1C(=O)NC(C(=O)NC(C)C(O)C(C)C(=O)NC(C(=O)NCCc1nc(-c2nc(C(=O)NCCCNCCCCN)cs2)cs1)C(C)O)C(OC1OC(CO)C(O)C(O)C1OC1OC(CO)C(O)C(OC(N)=O)C1O)c1c[nH]cn1 (centres undefined)
Out: > 10 µM (inactive)

In: Repeat with "CC(C)(C)c1cc(C(C)(C)C)c2c(c1O)OC(=O)CS2"
Out: 4.31 µM (inactive)

---

test system: SNB-75; assay: NCI tumour cell line growth inhibition, 48 h
Activity calls are given as the source filed them. Cut-off read from the data, not from the text of the source: active = GI50 up to about 1.1 µM and inactive = higher.
In this section, each of the compounds is paired with its reported GI50.

• N#CN1CC[C@@H]2CC3(CCC2C1)OCCO3 (some centres not stated) = > 100 µM (inactive)

In: Which measured GI50 value corresponds to "CCN(CC)CCSc1c2cc(OC)ccc2nc2ccc(OC)cc12" ?
Out: 14.4 µM (inactive)

In: Lookup "N/C(=N\N=C\c1cc2ccccc2s1)c1cnccn1"
Out: 29.3 µM (inactive)

In: Another compound: "CSC(=S)N/N=C(\C)c1cccc(C)n1"
Out: 1.86 µM (inactive)

In: Can you check "CN(NC(=O)CCCl)C1=NCCN1" next?
Out: > 100 µM (inactive)

In: Repeat for the following compound: "Cc1cc(S(=O)(=O)Nc2nc(Nc3ccc4ccccc4c3)n[nH]2)c(S)cc1Cl"
Out: 43.3 µM (inactive)

In: Another: "O=C(Cc1nc(-c2ccccc2)cc(=O)n1-c1ccccc1Cl)c1ccncc1"
Out: 25.2 µM (inactive)

In: Similarly, CCOC(=O)C1(Cc2ccc(C)cc2)Cc2ccc(C)cc2C1=O (configuration not stated) ?
Out: 24.3 µM (inactive)

In: Another compound to look at: C1CCC(CC2CCC(NC3=NCCO3)CC2)CC1 (configuration not stated)
Out: 18.2 µM (inactive)

In: Can you check "Cc1c(-c2cnccn2)ssc1=S" next?
Out: 18.5 µM (inactive)

In: Also "CSc1[nH]nc(N)c1C(=O)Nc1ccccc1" , if possible.
Out: > 100 µM (inactive)

In: Now this one: O=C(Cc1ccccc1)NN1C(=O)C(Cl)C1c1ccccc1O (configuration not stated)
Out: 34.8 µM (inactive)

---

test system: NCI-H23; assay: NCI tumour cell line growth inhibition, 48 h
The source made the active and inactive calls. Cut-off read from the data, not from the text of the source: active = GI50 up to about 1.1 µM and inactive = higher.
GI50 overview

Answered cases to consult:
* Cc1c(N)nc(C(CC(N)=O)NCC(N)C(N)=O)nc1C(=O)NC(C(=O)NC(C)C(O)C(C)C(=O)NC(C(=O)NCCc1nc(-c2nc(C(=O)NCCCNCCCCN)cs2)cs1)C(C)O)C(OC1OC(CO)C(O)C(O)C1OC1OC(CO)C(O)C(OC(N)=O)C1O)c1c[nH]cn1 (centres undefined) | 1.79 µM (inactive)
* O=C(Nc1c(Cl)cccc1Cl)c1c(Cl)c(Cl)c(Cl)c(Cl)c1-c1nc2ccccc2[nH]1 | 76.7 µM (inactive)
* CCCCCCCCCC(=O)OCC1(CO)C/C(=C/CC(C(C)C)C(C)C)C(=O)O1 (centres undefined) | > 100 µM (inactive)

In: # get_value(readout= GI50, system= NCI-H23) for "CN(NC(=O)CCCl)C1=NCCN1"
Out: > 100 µM (inactive)
